systemUnderTest: Ox receptor
protocol: Ox receptor binding, [3H]-rilmenidine displacement in human brain homogenates
assaySetup: human brain homogenates, Table 5; read-out: Receptor Affinities (nM) Ox
parameter: Ki (nM)
Write down the numeric answer in nM and omit the unit.

In [3]: df
Out[3]:
                                   compound  parameter  readoutvalue
0  c1ccc2nc(C3=NCCN3)ccc2c1 [BU-224, 2-(4,5-dihydroimidaz-2-yl)quinoline]         Ki          9580
1  FC(F)(F)C(NC1=NCCO1)C1CC1 (single isomer, unassigned; (+)) [(+)-S8349]         Ki           268
2  CCC1CCCC(C)C1NC1=NCCO1 (centres unmarked)         Ki           215
3  COC1(C2=NCCN2)COc2ccccc2O1 (centres unmarked)         Ki        100000

Moving on to another compound below.
[ask] Which Ki is reported for this compound? FC(F)(F)C(NC1=NCCO1)C1CC1 (single isomer, unassigned; (-)) [(−)-S8350]
[reply] 199
